- tested-on: Arylamine N-acetyltransferase (Pseudomonas aeruginosa (strain ATCC 15692 / PAO1 / 1C / PRS 101 / LMG12228), UniProt Q9HUY3)
- Sequence (Q9HUY3 whole entry): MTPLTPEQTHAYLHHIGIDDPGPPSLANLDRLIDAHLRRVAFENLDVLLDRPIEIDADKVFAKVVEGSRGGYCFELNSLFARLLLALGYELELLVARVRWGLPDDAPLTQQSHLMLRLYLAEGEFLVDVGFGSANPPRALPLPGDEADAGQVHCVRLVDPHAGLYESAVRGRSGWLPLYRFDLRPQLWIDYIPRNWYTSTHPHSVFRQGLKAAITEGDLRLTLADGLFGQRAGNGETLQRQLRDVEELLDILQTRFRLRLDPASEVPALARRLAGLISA
- measurement-context: read-out: INH
- Description: Inhibition of Pseudomonas aeruginosa recombinant NAT using isoniazid as substrate at 30 uM
I'd be grateful if you could share measured inhibition at 30 µM for these entries.

COc1cccc(/C=C2\SC(=S)NC2=O)c1 :: < 40%
COc1ccc(/C=C2\SC(=S)NC2=O)cc1 :: < 40%

Here are 5 compounds. What values of inhibition at 30 µM were reported for them?
1. O=C1NC(=S)S/C1=C\c1ccc(Cl)cc1
2. Cc1cccc(/C=C2\SC(=S)NC2=O)c1
3. O=C1NC(=S)S/C1=C\c1ccc(Cl)c(Cl)c1
4. Cc1ccc(/C=C2\SC(=S)NC2=O)cc1
5. O=C1NC(=S)S/C1=C\c1ccc(F)cc1

["< 40%", "< 40%", "< 40%", "< 40%", "< 40%"]

---

I'd be grateful if you could share measured pIC50 for these entries.
- tested-on: Arylamine N-acetyltransferase 2 (Mus musculus)
- assay-text: Inhibition of mouse recombinant NAT2 assessed as hydrolysis of acetyl coA using PABA as substrate by Ellman's method
One number for each entry, as −log10 of the molar value.

Some compounds with known pIC50 results, for comparison:
CCCCCCCCC/C=C1\SC(=S)NC1=O :: 4.99
C/C(=C1/SC(=S)NC1=O)c1ccccc1 :: 4.60
CCC/C=C1\SC(=S)NC1=O :: 5.11
CN1C(=O)/C(=C/c2ccccc2-c2ccccc2)SC1=S :: 5.00
O=C1NC(=S)S/C1=C\Cc1ccccc1 :: 4.62
CCCCCCC/C=C1\SC(=S)NC1=O :: 5.17

Here are 8 compounds. What values of pIC50 were reported for them?
1. NN1C(=O)/C(=C/c2ccccc2O)SC1=S
2. CN1C(=O)/C(=C/c2cccc(F)c2)SC1=S
3. COc1ccc(/C=C2\SC(=S)N(C)C2=O)cc1
4. CN1C(=O)/C(=C/c2ccc(O)cc2)SC1=S
5. O=C1NC(=S)S/C1=C\c1ccc2ccccc2c1
6. CCCCC/C=C1\SC(=S)NC1=O
7. CN1C(=O)/C(=C/c2ccccc2F)SC1=S
8. O=C1NC(=S)S/C1=C\c1ccccc1-c1ccccc1

[5.29, 5.14, 6.00, 4.85, 4.57, 5.89, 4.93, 4.78]

---

I'd be grateful if you could share measured Activity for these entries.
- assay-text: Cytotoxicity against mouse macrophage at 10 ug/ml after 72 hrs by trypan blue exclusion method
- Assay type: cell-based

Some molecules with known Activity results, for comparison:
NN1C(=O)/C(=C/c2ccccc2O)SC1=S :: < 80%
NN1C(=O)/C(=C/c2ccccc2-c2ccccc2)SC1=S :: < 80%
O=C1NC(=S)S/C1=C\c1cc(I)c(O)c(I)c1 :: > 80%

Here are 3 molecules. What values of Activity were reported for them?
1. NN1C(=O)/C(=C/c2cc(I)c(O)c(I)c2)SC1=S
2. O=C1NC(=S)S/C1=C\c1cccc(O)c1
3. O=C1NC(=S)S/C1=C\c1ccccc1O

["< 80%", "< 80%", "< 80%"]

---

- tested-on: Arylamine N-acetyltransferase 2 (NAT2) (Mus musculus, UniProt P50295)
- Sequence (P50295 whole entry): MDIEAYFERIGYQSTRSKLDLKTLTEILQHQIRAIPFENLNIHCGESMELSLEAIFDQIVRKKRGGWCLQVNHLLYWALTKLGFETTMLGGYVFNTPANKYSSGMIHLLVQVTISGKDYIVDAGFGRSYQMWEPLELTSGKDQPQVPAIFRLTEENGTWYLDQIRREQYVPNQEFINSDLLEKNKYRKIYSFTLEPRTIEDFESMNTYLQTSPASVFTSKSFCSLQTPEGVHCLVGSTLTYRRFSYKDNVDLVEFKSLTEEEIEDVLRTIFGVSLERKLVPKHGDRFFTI
- assay-text: Inhibition of mouse recombinant NAT2 using 5-aminosalicylic acid as substrate at 30 uM
- measurement-context: recombinant NAT2, probe 5-aminosalicylic acid
readout-label: inhibition at 30 µM (%)
Give bare numbers, in %.

Recorded inhibition at 30 µM of O=C1NC(=S)S/C1=C\c1cc(I)c(O)c(I)c1 , please.
104

The measured values listed here are drawn from ChEMBL document CHEMBL1140849.
